# Tested on: iAstro (astrocyte control)
# assay_explanation: EC50 (inflection of fitted growth-inhibition curve) (log10 M)
recorded_endpoint: EC50 (log10 M)

Sample answers from the record:
compound	EC50 (log10 M)
COc1ccc(C[C@H](NC(=O)[C@H](C)NC(=O)CN2CCOCC2)C(=O)N[C@@H](Cc2ccccc2)C(=O)C2(C)CO2)cc1 (stereo in doubt)	-7.31
CCCc1cc(C)[nH]c(=O)c1CNC(=O)c1cc(-c2ccnc(N3CCN(C)CC3)c2)cc2c1cnn2C(C)C	-4.88
C=CCNC1=C2C[C@@H](C)C[C@H](OC)[C@H](O)[C@@H](C)/C=C(\C)[C@H](OC(N)=O)[C@@H](OC)/C=C\C=C(/C)C(=O)NC(=CC1=O)C2=O	-5.41
CC(C)c1c2cc(-c3ccnc(NC4CCC(NC5CCOCC5)CC4)n3)ccc2nn1C (stereo unspecified)	-7.45
CC(C)C[C@H](NC(=O)[C@H](CCc1ccccc1)NC(=O)CN1CCOCC1)C(=O)N[C@@H](Cc1ccccc1)C(=O)N[C@@H](CC(C)C)C(=O)[C@@]1(C)CO1	-8.68

Here is another compound to look at.
(Q) Fill in: EC50 (log10 M) of O=C(Nc1ccc(Nc2nccc(Nc3cc(C4CCCC4)[nH]n3)n2)cc1)Nc1cccc(C(F)(F)F)c1 is ___
(A) -6.36

* * *

# Test system: HGGX2 (paediatric high-grade glioma line)
# assay_explanation: EC50 (inflection of fitted growth-inhibition curve) (log10 M)
EC50 (log10 M) strictly under -6 means YES; at -6 or over means NO.

Completed entries (count: 8):
molecule	measurement_target	class_name
COC(=O)[C@]12CCC(C)(C)C[C@H]1[C@H]1C(=O)C=C3[C@@]4(C)C=C(C#N)C(=O)C(C)(C)[C@@H]4CC[C@@]3(C)[C@]1(C)CC2	HGGX2	NO
CN(C)C/C=C/C(=O)Nc1cc2c(Nc3ccc(F)c(Cl)c3)ncnc2cc1O[C@H]1CCOC1	HGGX2	NO
NC1CCC(Nc2cc(-c3cccc(NCc4cccc(F)c4)n3)c(Cl)cn2)CC1 (stereo not given)	HGGX2	NO
COc1ccc(-c2nc(N3CCOCC3)c3sc(CN(C)c4ncc(C(=O)NO)cn4)cc3n2)cn1	HGGX2	YES
O=C(Nc1ccc(Nc2nccc(Nc3cc(C4CCCC4)[nH]n3)n2)cc1)Nc1cccc(C(F)(F)F)c1	HGGX2	YES
Cc1ccc(C(=O)Nc2ccc(CN3CCN(C)CC3)c(C(F)(F)F)c2)cc1C#Cc1cnc2cccnn12	HGGX2	NO
NC(=O)Nc1sc(-c2ccc(F)cc2)cc1C(N)=O	HGGX2	NO
COc1cccc2c1C(=O)c1c(O)c3c(c(O)c1C2=O)C[C@@](O)(C(=O)CO)C[C@@H]3O[C@H]1C[C@H](N)[C@H](O)[C@H](C)O1	HGGX2	YES

(Q) I wonder whether COc1ccc(C[C@H](NC(=O)[C@H](C)NC(=O)CN2CCOCC2)C(=O)N[C@@H](Cc2ccccc2)C(=O)C2(C)CO2)cc1 (stereo in doubt) has EC50 (log10 M) below -6. Can you tell?
(A) YES

(Q) I wonder whether CCCc1cc(C)[nH]c(=O)c1CNC(=O)c1cc(-c2ccnc(N3CCN(C)CC3)c2)cc2c1cnn2C(C)C has EC50 (log10 M) below -6. Can you tell?
(A) NO

(Q) I wonder whether CCOc1cc(C(C)(C)C)ccc1C1=N[C@@](C)(c2ccc(Cl)cc2)[C@@](C)(c2ccc(Cl)cc2)N1C(=O)N1CCN(CCCS(C)(=O)=O)CC1 has EC50 (log10 M) below -6. Can you tell?
(A) NO

(Q) I wonder whether C#Cc1cccc(Nc2ncnc3cc(OCCOC)c(OCCOC)cc23)c1 has EC50 (log10 M) below -6. Can you tell?
(A) NO

(Q) I wonder whether CC(C)(C)OC(=O)Nc1ccc(-c2cc(C(=O)NCCCCCCC(=O)NO)no2)cc1 has EC50 (log10 M) below -6. Can you tell?
(A) NO

(Q) I wonder whether C=CCn1c(=O)c2cnc(Nc3ccc(N4CCN(C)CC4)cc3)nc2n1-c1cccc(C(C)(C)O)n1 has EC50 (log10 M) below -6. Can you tell?
(A) YES

(Q) I wonder whether N#CN=C(NCCCCCCOc1ccc(Cl)cc1)Nc1ccncc1 has EC50 (log10 M) below -6. Can you tell?
(A) YES

Where do the numbers come from? From the supplement of paper PMC8253809.
